So I've got a bunch of molecules here, and I need their %Inh values.
system: LATS1; conditions: concentration: 1 μM, replicates: in singlicate; n = 1;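 further: KINOMEscan kinase panel screen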
Numbers only, in %.

Example entries and their recorded answers appear below.
Indicate its recorded %Inh; the molecule in question is `NS(=O)(=O)c1cccc(-c2ccc3ncc(N4CCOCC4)nc3c2)c1`
0

Input `O=C1Cc2cc(Nc3nc(NCc4cccc(S(=O)(=O)C(F)(F)F)c4)ncc3C(F)(F)F)ccc2N1` , output reported %Inh.
11

Hello, please tell me recorded %Inh for this one: `Fc1ccc(-c2nn3c(OCC(F)(F)F)cccc3c2-c2ccncc2)cc1`
41

Give the reported %Inh for this molecule. `CCn1cnc2c(N)ncnc21`
0

Please indicate %Inh recorded for Cc1c(Cn2c(C)nn3c(=O)cc(N4CCOC(C)C4)nc23)cccc1C(F)(F)F (stereo not drawn)
0

Consider the molecule `Cc1c2ccc(N(C)c3ccnc(Nc4cccc(S(N)(=O)=O)c4)n3)cc2nn1Cc1ccccc1.Cl.Cl` and give its recorded %Inh.
6

Report measured %Inh; entry is `O=C1NC(=O)C(N2CCc3ccccc32)=C1c1cccc(Cl)c1`
0

Check the records and state %Inh for `COc1cc2ncn(-c3cc(OCc4sccc4Cl)c(C(N)=O)s3)c2cc1OC`
47

***
Find the measured %Inh of `O=C(c1ccc(-c2cc(-c3c[nH]nc3-c3ccccn3)ccn2)cc1)N1CCOCC1` and report it.
0

----------
Field: %Inh. Provide a value for each of the compounds that follow.
tested on: PAK1; settings: concentration: 1 μM, replicates: in singlicate; n = 1
Numbers only, in %.

Give the measured %Inh for `COc1ccc(Nc2ncc(C#N)c(Nc3ccccc3C(N)=O)n2)cc1N1CCN(C)CC1.Cl`
91.2

Query %Inh for `COc1cc2c(cc1OC[C@@H](O)CO)ncc1c3ccc(C#N)cc3[nH]c21`
0

Let me know recorded %Inh for `Cc1cccc(-c2nc(Nc3ccc4ncsc4c3)c3ccccc3n2)n1` , thanks.
0

Return %Inh for the following compound: `N#Cc1ccc(-c2cc(-c3c[nH]nc3-c3ccccn3)ccn2)cc1`
8

Return reported %Inh. Input compound: `Cc1cccc(-c2nc(-c3ccc(S(C)(=O)=O)cc3)sc2-c2ccncc2)c1`
14

Could you please provide reported %Inh for `CC(=O)Nc1ccc(COc2ccc(Nc3ccnc4cc(-c5ccccn5)ccc34)cc2)cc1.Cl` ? Thanks!
15

For every listed record, write down its %Inh.
1. CCCCCc1nc2c(N)ncnc2n1CCCCC
2. O=C(Nc1n[nH]c2cc(-c3cccc(F)c3)ccc12)C1CC1
3. NS(=O)(=O)c1cccc(-c2ccc3ncc(N4CCOCC4)nc3c2)c1
4. O=C(NCCNc1ccnc(Nc2ccc(F)cc2)n1)Nc1ccccc1F
5. O=C(NCCCN1CCOCC1)c1cccc(Nc2nccc(Nc3ccc(Oc4ccccc4)cc3)n2)c1
6. CN(C(=O)c1ccc(-c2cc(-c3c[nH]nc3-c3ccccn3)ccn2)cc1)C1CCOCC1

1: 12; 2: 0; 3: 17; 4: 2; 5: 9; 6: 0

Output measured %Inh for this item: `COc1ccc(COc2cc(-n3cnc4ccccc43)sc2C(N)=O)cc1`
1

----------
system: DYRK1B; settings: concentration: 1 μM, replicates: in singlicate; n = 1
Exercise: state measured %Inh for each of the compounds provided.
Give bare numbers, in %.

Here are 2 compounds. What values of %Inh were reported for them?
1. Cl.Nc1ncnc2occ(-c3ccc(NC(=O)Nc4cc(C(F)(F)F)ccc4F)cc3)c12
2. Cc1cccc(Cn2ccn3c(=O)cc(N4CCOCC4)nc23)c1

1. 0
2. 17

Parameters: items (list). Returns: %Inh for each item.
1. CN(C(=O)c1ccc(-c2cc(-c3c[nH]nc3-c3ccccn3)ccn2)cc1)C1CCOCC1
2. Cc1nnc(-c2ccc3ncc(-c4ccc(S(C)=O)cc4)n3c2)o1 (stereo not drawn)
3. CC(C)Oc1ccc2c(-c3ccnc(Nc4ccc(N5CCN(C)CC5)cc4)n3)cnn2n1

9
66
61

Dear colleague, could you send me %Inh for each of the items below? Thanks.
1. N#Cc1c(N2CCOCC2)sc(-c2ccn[nH]2)c1-c1ccc(Cl)cc1
2. Nc1nc(-c2ccc3c(N)n[nH]c3c2)cc(N2CCCC2)n1
3. O=C1NC(=O)C(N2CCc3ccccc32)=C1c1cccc(Cl)c1

[47, 4, 0]

----------
tested on: DYRK2; conditions: concentration: 1 μM, replicates: in singlicate; n = 1
What %Inh was measured for each of the following?
Numbers only, in %.

Please review the entries below; each comes with its answer.
Look up and state reported %Inh for `CN1c2ccc(NCc3ccc(F)cc3)cc2-c2c(cnn2C)S1(=O)=O`
0

Consider the compound `CN1c2ccc(CNc3ccc(F)cc3)cc2-c2c(cnn2C)S1(=O)=O` and give its recorded %Inh.
0

Identify measured %Inh associated with `CC(C)Oc1ccc2c(-c3ccnc(Nc4ccc(N5CCN(C)CC5)cc4)n3)cnn2n1`
91.6

Here's the next entry for you.
Fill in reported %Inh for this entry: `NS(=O)(=O)c1cccc(-c2ccc3ncc(N4CCOCC4)nc3c2)c1`
28

----------
For each entry below, report its %Inh value.
system: TRPM6; details: concentration: 1 μM, replicates: in singlicate; n = 1

State, in one line, measured %Inh of Cc1c(Cn2c(C)nn3c(=O)cc(N4CCOC(C)C4)nc23)cccc1C(F)(F)F (stereo not drawn) [GSK2344444]
6%

Determine its reported %Inh: COc1ccc(Nc2nccc(N3CCC(NC(=O)Nc4cc(C)ccc4C)C3)n2)cc1 (stereo not drawn) [GSK1379741]
32%

---
Return value of %Inh for input O=C(Nc1n[nH]c2cc(-c3cccc(F)c3)ccc12)C1CC1 [SB-735464] , no commentary.
7%

----------
tested on: CAMK1B; settings: concentration: 1 μM, replicates: in singlicate; n = 1
Assignment: determine reported %Inh for the given molecules.
Numbers only, in %.

Some entries whose results are on file:
Look up and state reported %Inh for `Cc1ccc(C(=O)NCC(N)=O)cc1-n1c(C)cc(OCc2ccc(F)cc2F)c(Br)c1=O`
10

Check the records and state %Inh for Cc1c2ccc(N(C)c3ccnc(Nc4cccc(S(N)(=O)=O)c4)n3)cc2nn1Cc1ccccc1.Cl.Cl [GW787226]
0

Recall and state the measured %Inh for CCCCCc1nc2c(N)ncnc2n1CCCCC [SKF-97255] .
0

Supply measured %Inh of COc1ccc(Nc2nccc(N3CCC(NC(=O)Nc4cc(C)ccc4C)C3)n2)cc1 (stereo not drawn) [GSK1379741] in your reply.
13

Look up and state reported %Inh for O=C(NCCNc1ccnc(Nc2ccc(F)cc2)n1)c1cc2ccccc2s1 [GSK1379874]
0

Would you mind giving %Inh for every molecule in the list below?
1. COc1ccc(Nc2ncc(C#N)c(Nc3ccccc3C(N)=O)n2)cc1N1CCN(C)CC1.Cl [GSK1558669]
2. CC(C)Oc1ccc2c(-c3ccnc(Nc4ccc(N5CCN(C)CC5)cc4)n3)cnn2n1 [GW696155]

1: 100; 2: 96.3

Batch request: %Inh per item, same order as input.
1. NS(=O)(=O)CCc1cccc(Nc2nccc(-c3c(-c4cccc(NC(=O)c5c(F)cccc5F)c4)nn4ccccc34)n2)c1 [GSK336735]
2. Cc1nnc(-c2ccc3occ(-c4ccc(C(C)O)cc4)c3c2)o1 (stereo not drawn)

0
0

----------
tested on: MAST1; conditions: concentration: 1 μM, replicates: in singlicate; n = 1
Would you kindly list %Inh for each of these compounds?
Hi, when you answer, please include the unit after the number. Thanks!

Please report the measured %Inh for `O=c1cc(N2CCOCC2)nc2n(Cc3cccc(F)c3)ccn12` tested on MAST1.
0%

Determine reported %Inh for `NS(=O)(=O)c1cccc(-c2ccc3ncc(N4CCOCC4)nc3c2)c1` ; test system: MAST1.
0%

Provide MAST1 %Inh reading for `Cc1nnc(-c2ccc(C)c(-c3ccc(C(=O)Nc4ccc(NS(C)(=O)=O)cc4)cc3)c2)o1` .
21%

Fill: %Inh (MAST1) for this compound `CC(C)(C)n1cnc2c(N)ncnc21`
58%

State recorded %Inh with MAST1, entry `CC(C)Oc1ccc2c(-c3ccnc(Nc4ccc(N5CCN(C)CC5)cc4)n3)cnn2n1` , no comment.
8%

Dear colleague, could you please provide %Inh for the compounds listed below?
1. CC(=O)Nc1ccc(COc2ccc(Nc3ccnc4cc(-c5ccccn5)ccc34)cc2)cc1.Cl
2. O=C(c1ccc(-c2cc(-c3c[nH]nc3-c3ccccn3)ccn2)cc1)N1CCOCC1
3. CNc1ncnc2[nH]ncc12

1: 16%; 2: 18%; 3: 70%

----------
Give %Inh for every item shown.
tested on: p38-gamma; construct: gene MAPK12; conditions: concentration: 1 μM, replicates: in singlicate; n = 1
Answers are plain numbers, in %.

Worked cases, %Inh given:
Return the recorded %Inh value; entry: `O=C(NOCC1CC1)c1ccc(F)c(F)c1Nc1ccc(I)cc1Cl`
0

State its %Inh for this molecule: Cc1ccc(NC(=O)c2ccnc(N3CCN(C)CC3)c2)cc1-c1ccc(C(=O)NCC2CC2)cc1 [GW775604]
0

Consider the molecule `CCc1ccnc(/C=C/c2n[nH]c3cc(Sc4ccccc4C(=O)NC)ccc23)c1` . State its measured %Inh.
7

Given the molecule Cc1cn2c(=O)cc(N3CCOCC3)nc2n1Cc1cccc(Cl)c1Cl [GSK2334006] , write its reported %Inh.
0

Annotate the molecule c1ccc(-c2n[nH]cc2-c2ccnc3ccccc23)nc1 [GW271431] with its measured %Inh.
0

Give the reported %Inh for this molecule. Cc1c2ccc(N(C)c3ccnc(Nc4cccc(S(N)(=O)=O)c4)n3)cc2nn1Cc1ccccc1.Cl.Cl [GW787226]
35

For each of the molecules below, state %Inh.
1. NS(=O)(=O)c1cccc(-c2ccc3nccc(-c4cccc(S(N)(=O)=O)c4)c3c2)c1 [GW867253]
2. O=C(c1ccc(-c2cc(-c3c[nH]nc3-c3ccccn3)ccn2)cc1)N1CCOCC1 [GW812171]
3. c1ccc(-c2cc(-c3c[nH]nc3-c3ccccn3)ccn2)cc1 [GW576604]

0
0
0

Return reported %Inh values for all items listed beneath this line.
1. Nc1nccc(-c2c(-c3ccc(F)cc3)ncn2C2CCN(CC(F)(F)F)CC2)n1 [SB-236560]
2. N#Cc1ccc(-c2cc(-c3c[nH]nc3-c3ccccn3)ccn2)cc1 [GW693028]
3. CN1c2ccc(CNc3ccc(F)cc3)cc2-c2c(cnn2C)S1(=O)=O
4. CNc1ncnc2[nH]ncc12 [SKF-18355]
5. COc1ccc(CNC(=O)NC2CCN(c3ccnc(Nc4ccc(OC)cc4)n3)C2)cc1 (stereo not drawn) [GSK1379727]
6. NS(=O)(=O)c1cccc(-c2ccc3ncc(N4CCOCC4)nc3c2)c1 [GSK1535721]

0
0
14
0
45
0

Please look at the items below and tell me %Inh for each one, in order.
1. CN1c2ccc(NCc3ccc(F)cc3)cc2-c2c(cnn2C)S1(=O)=O
2. O=C(NCCNc1ccnc(Nc2ccc(F)cc2)n1)Nc1ccccc1F [GSK1379880]
3. Cc1ccc(C(=O)NCC(N)=O)cc1-n1c(C)cc(OCc2ccc(F)cc2F)c(Br)c1=O
4. COc1cc(Nc2nccc(N3CCC(NC(=O)c4cccc(NC(C)=O)c4)C3)n2)cc(OC)c1OC (stereo not drawn) [GSK1379754]

1: 0; 2: 0; 3: 8; 4: 0

Below are some molecules; for each one, tell me its %Inh.
1. CCc1nc(-c2cccc(C)c2)c(-c2ccnc(NCc3ccccc3)c2)s1
2. Cc1nnc(-c2ccc3ncc(-c4ccc(S(C)=O)cc4)n3c2)o1 (stereo not drawn)
3. O=C(Nc1cccc(-c2nn3ncccc3c2-c2ccnc(Nc3cccc(C(F)(F)F)c3)n2)c1)c1c(F)cccc1F [GSK299495]
4. COc1ccc(S(=O)(=O)NC2CCN(c3cc(C)nc(Nc4cccc(C#N)c4)n3)CC2)cc1.O=C(O)C(F)(F)F [GSK1653539]
5. CCCCCc1nc2c(N)ncnc2n1CCCCC [SKF-97255]
6. COc1cc2c(cc1OCCN1CCN(C)CC1)ncc1c3ccc(C#N)cc3[nH]c21

1. 0
2. 10
3. 13
4. 0
5. 50
6. 35

Required: %Inh, one value per molecule below.
1. COc1cc2c(cc1OC[C@@H](O)CO)ncc1c3ccc(C#N)cc3[nH]c21
2. CC(=O)Nc1ccc(COc2ccc(Nc3ccnc4cc(-c5ccccn5)ccc34)cc2)cc1.Cl [GW440148]

[18, 0]
